- target: p38 MAPK γ (MAPK12) (Homo sapiens (Human), UniProt P53778)
- Sequence (P53778 whole entry): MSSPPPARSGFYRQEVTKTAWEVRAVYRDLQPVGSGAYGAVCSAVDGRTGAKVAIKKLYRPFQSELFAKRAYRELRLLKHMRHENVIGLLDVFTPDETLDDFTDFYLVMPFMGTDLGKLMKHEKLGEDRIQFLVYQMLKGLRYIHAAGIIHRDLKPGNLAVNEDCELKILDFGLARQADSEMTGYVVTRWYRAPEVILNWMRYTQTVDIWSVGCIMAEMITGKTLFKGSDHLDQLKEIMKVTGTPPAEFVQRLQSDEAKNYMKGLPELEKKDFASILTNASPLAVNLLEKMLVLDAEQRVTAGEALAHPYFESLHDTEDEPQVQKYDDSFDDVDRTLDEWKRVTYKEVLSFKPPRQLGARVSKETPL
parameter-measured: IC50 (nM)

{"smiles-string": "COc1ccc(-n2nc(C(C)(C)C)cc2NC(=O)Nc2ccc(Oc3ccnc4[nH]c(=O)cnc34)c3ccccc23)cn1", "IC50, nM": 44}
{"smiles-string": "Cc1ccc(-n2nc(C(C)(C)C)cc2NC(=O)Nc2ccc(Oc3ncnc4[nH]c(=O)[nH]c34)c3ccccc23)cc1", "IC50, nM": 539}

a = COc1ccc(-n2nc(C(C)(C)C)cc2NC(=O)Nc2ccc(Oc3ccnc4[nH]c(=O)[nH]c34)c3ccccc23)cc1
b = COc1ccc(-n2nc(C(C)(C)C)cc2NC(=O)Nc2ccc(Oc3ccnc4[nH]c(=O)cnc34)c3ccccc23)cc1
Pick the one with the larger IC50: a vs b In your reply, give the label of the chosen option.
a

---

Measurement record for UniProt:P53778; quantity recorded: IC50.
parameter-measured: IC50 (nM)

{"compound": "COc1ccc(-n2nc(C(C)(C)C)cc2NC(=O)Nc2ccc(OCc3ccnc4[nH]c(=O)cnc34)c3ccccc23)cc1 [Example 23]", "value-units": "nM", "IC50": 193}

A = Cc1ccc(-n2nc(C(C)(C)C)cc2NC(=O)Nc2ccc(Oc3ccnc4[nH]c(=O)[nH]c34)c3ccccc23)cc1 [Example 1]
B = COc1ccc(-n2nc(C(C)(C)C)cc2NC(=O)Nc2ccc(Oc3ccnc4[nH]c(=O)n(C)c34)c(Cl)c2Cl)cc1 [Example 13]
Pick the one with the larger IC50: A vs B In your reply, give the label of the chosen option.
A
(A: 74 nM, B: 23 nM)

---

- System: TNFα release in d-U937 cells
- protocol-description: LPS-induced TNFα release in d-U937 cells
- Assay type: cell-based
- condition-details: Homo sapiens, dU937, LPS 0.1 μg/mL, 4 hr, relative to 10 μg/mL BIRB796, read-out: d-U937 (LPS) TNFα REC50
parameter-measured: EC50 (nM)

{"molecule": "COc1ccc(-n2nc(C(C)(C)C)cc2NC(=O)Nc2ccc(Oc3ccnc4[nH]c(=O)[nH]c34)c3ncccc23)cc1", "EC50 (nM)": 166}

I = Cc1ccc(-n2nc(C(C)(C)C)cc2NC(=O)Nc2ccc(Oc3ccnc4[nH]c(=O)c(C)nc34)c3ccccc23)cc1
II = COCC(=O)Nc1cc(Oc2ccc(NC(=O)Nc3cc(C(C)(C)C)nn3-c3ccc(C)cc3)c3ccccc23)ccn1 [Ref 2, reference compound]
III = CC(C)(C)c1cc(NC(=O)Nc2ccc(Oc3ccnc4[nH]c(=O)cnc34)c3ccccc23)n(-c2ccc(S(C)(=O)=O)cc2)n1
IV = COc1ccc(-n2nc(C(C)(C)C)cc2NC(=O)Nc2ccc(Oc3ccnc4[nH]c(=O)n(C)c34)c(Cl)c2Cl)cc1
V = CC(C)(C)c1cc(NC(=O)Nc2ccc(Oc3ccnc4[nH]c(=O)cnc34)c3ccccc23)n(-c2ccccc2)n1
Rank order required: EC50, descending. // respond by listing labels in the order requested
III, V, IV, I, II
(III: 60 nM, V: 6.2 nM, IV: 0.6 nM, I: 0.3 nM, II: 0.13 nM)

---

- Test system: TNFα release in d-U937 cells
- protocol-description: LPS-induced TNFα release in d-U937 cells
- Format: cell-based
- condition-details: Homo sapiens, dU937, LPS 0.1 μg/mL, 4 hr, relative to 10 μg/mL BIRB796, read-out: d-U937 (LPS) TNFα REC50
parameter-measured: EC50 (nM)

{"smiles-string": "COc1ccc(-n2nc(C(C)(C)C)cc2NC(=O)Nc2ccc(Oc3ccnc4[nH]c(=O)n(C)c34)c3ccccc23)cc1", "assay-result": 1.3}

I = Cc1ccc(-n2nc(C(C)C)cc2NC(=O)Nc2ccc(Oc3ccnc4[nH]c(=O)cnc34)c3ccccc23)cc1
II = CC(C)(C)c1cc(NC(=O)Nc2ccc(Oc3ccnc4[nH]c(=O)[nH]c34)c3ccccc23)n(-c2ccccc2)n1
III = CSc1ccc(-n2nc(C(C)(C)C)cc2NC(=O)Nc2ccc(Oc3ccnc4[nH]c(=O)cnc34)c3ccccc23)cc1
IV = Cc1nc2c(Oc3ccc(NC(=O)Nc4cc(C(C)(C)C)nn4-c4ccccc4)c4ccccc34)ccnc2[nH]c1=O
V = CC(C)(C)c1cc(NC(=O)Nc2ccc(Oc3ccnc4[nH]c(=O)cnc34)c3ccccc23)n(-c2ccc(O)cc2)n1
Hi! Can you put these in order of EC50, lowest number first? // respond by listing labels in the order requested
I, IV, II, III, V
(I: 1.1 nM, IV: 1.7 nM, II: 3 nM, III: 8.2 nM, V: 55 nM)

---

The molecules listed here are annotated with their IC50.
- Test system: ICAM-1 expression in BEAS2B cells
- protocol-description: Poly I:C-induced ICAM-1 induction in BEAS2B cells
- Assay type: cell-based
- condition-details: Homo sapiens, BEAS-2B; BEAS2B cells, poly I:C 1 μg/mL, 18 hr; read-out: BEAS2B (polyIC) ICAM1 IC50
// units = nM; emit number, no label

{"molecule": "CC(C)(C)c1cc(NC(=O)Nc2ccc(Oc3ccnc4[nH]c(=O)cnc34)c3ccccc23)n(-c2ccc(Cl)cc2)n1", "target": "ICAM-1 expression in BEAS2B cells", "IC50 / nM": 2.2}
{"molecule": "COc1ccc(-n2nc(C(C)(C)C)cc2NC(=O)Nc2ccc(Oc3ccnc4[nH]c(=O)cnc34)c3ccccc23)cn1", "target": "ICAM-1 expression in BEAS2B cells", "IC50 / nM": 21}
{"molecule": "Cc1ccc(-n2nc(C(C)(C)C)cc2NC(=O)Nc2ccc(OCCN3CCOCC3)c3ccccc23)cc1 [BIRB 796, reference compound]", "target": "ICAM-1 expression in BEAS2B cells", "IC50 / nM": 3530}

Lab note: measured IC50 of CNS(=O)(=O)Cc1ccc(-n2nc(C(C)(C)C)cc2NC(=O)Nc2ccc(Oc3ccnc4[nH]c(=O)cnc34)c3ccccc23)cc1 was 207

Lab note: measured IC50 of COc1ccc(-n2nc(C(C)(C)C)cc2NC(=O)Nc2ccc(Oc3ccnc4[nH]c(=O)[nH]c34)c3ncccc23)cc1 was 675

Lab note: measured IC50 of Cc1ccc(-n2nc(C(C)(C)C)cc2NC(=O)Nc2ccc(Oc3ccnc4[nH]c(=O)[nH]c34)c3ccccc23)cc1 was 2.7

Lab note: measured IC50 of Cc1nc2c(Oc3ccc(NC(=O)Nc4cc(C(C)(C)C)nn4-c4ccccc4)c4ccccc34)ccnc2[nH]c1=O was 3

Lab note: measured IC50 of Cc1ccc(-n2nc(C3(C)CC3)cc2NC(=O)Nc2ccc(Oc3ccnc4[nH]c(=O)cnc34)c3ccccc23)cc1 was 13

Lab note: measured IC50 of COc1cc(-n2nc(C(C)(C)C)cc2NC(=O)Nc2ccc(Oc3ccnc4[nH]c(=O)cnc34)c3ccccc23)ccc1CO was 15

Lab note: measured IC50 of Cc1ccc(-n2nc(C(C)(C)C)cc2NC(=O)Nc2ccc(Oc3ccnc4[nH]c(=O)cnc34)c3ccccc23)cc1 was 11

---

Measurement record for cSrc enzyme (Homo sapiens (Human), UniProt P12931); quantity recorded: IC50.
parameter-measured: IC50 (µM)

The cases that follow already have their IC50 on record.
{"compound": "Cc1ccc(-n2nc(C(C)(C)C)cc2NC(=O)Nc2ccc(Oc3ccnc4[nH]c(=O)[nH]c34)c3ccccc23)cc1 [Example 1]", "assay-result": 0.007}
{"compound": "COc1ccc(-n2nc(C(C)(C)C)cc2NC(=O)Nc2ccc(Oc3ccnc4[nH]c(=O)n(C(C)C)c34)c3ccccc23)cc1 [Example 12]", "assay-result": 0.012}
{"compound": "CNS(=O)(=O)Cc1ccc(-n2nc(C(C)(C)C)cc2NC(=O)Nc2ccc(Oc3ccnc4[nH]c(=O)cnc34)c3ccccc23)cc1 [Example 26]", "assay-result": 0.013}
{"compound": "CCn1c(=O)[nH]c2nccc(Oc3ccc(NC(=O)Nc4cc(C(C)(C)C)nn4-c4ccc(OC)cc4)c4ccccc34)c21 [Example 11]", "assay-result": 0.009}

a = Cc1ccc(-n2nc(C(C)(C)C)cc2NC(=O)Nc2ccc(Oc3ccnc4[nH]c(=O)cnc34)c3ccccc23)cc1 [Example 6]
b = CC(C)(C)c1cc(NC(=O)Nc2ccc(Oc3ccnc4[nH]c(=O)cnc34)c3ccccc23)n(-c2ccc(Cl)cc2)n1 [Example 27]
Pick the one with the larger IC50: a vs b In your reply, give the label of the chosen option.
b

---

- Tested on: TNFα release in d-U937 cells
- protocol-description: LPS-induced TNFα release in d-U937 cells
- Type: cell-based
- condition-details: Homo sapiens, dU937, LPS 0.1 μg/mL, 4 hr, relative to 10 μg/mL BIRB796, read-out: d-U937 (LPS) TNFα REC50
parameter-measured: EC50 (nM)

The cases that follow already have their EC50 on record.
{"compound": "COc1ccc(-n2nc(C(C)(C)C)cc2NC(=O)Nc2ccc(Oc3ccnc4[nH]c(=O)cnc34)c3ccccc23)cc1 [Example 25]", "target": "TNFα release in d-U937 cells", "value-units": "nM", "EC50": 1.8}
{"compound": "COc1ccc(-n2nc(C(C)(C)C)cc2NC(=O)Nc2ccc(Oc3ccnc4[nH]c(=O)[nH]c34)c3ccccc23)cc1 [Example 9]", "target": "TNFα release in d-U937 cells", "value-units": "nM", "EC50": 3.1}

A = CC(C)(C)c1cc(NC(=O)Nc2ccc(Oc3ccnc4[nH]c(=O)cnc34)c3ccccc23)n(-c2ccc(CO)cc2)n1 [Example 17]
B = Cc1ccc(-n2nc(C3(C)CC3)cc2NC(=O)Nc2ccc(Oc3ccnc4[nH]c(=O)cnc34)c3ccccc23)cc1 [Example 29]
C = COc1ccc(-n2nc(C(C)(C)C)cc2NC(=O)Nc2ccc(Oc3ccnc4[nH]c(=O)cnc34)c3ccccc23)cn1 [Example 20]
D = CC(C)(C)c1cc(NC(=O)Nc2ccc(Oc3ccnc4[nH]c(=O)cnc34)c3ccccc23)n(-c2ccc(Cl)cc2)n1 [Example 27]
E = COc1ccc(-n2nc(C(C)(C)C)cc2NC(=O)Nc2ccc(Oc3ccnc4[nH]c(=O)n(C(C)C)c34)c3ccccc23)cc1 [Example 12]
Rank order required: EC50, descending. // respond by listing labels in the order requested
A, B, C, D, E
